Below, each of the compounds is paired with its reported pIC50 value.
# System: Caki-2 cells
# assay-notes: CTG (CellTiter-Glo) cell viability assay, Caki-2
# Format: cell-based
# study-conditions: Homo sapiens, CAKI-2, 72 h, Caki-2, 3-day; read-out: CTG Chempartner/PHA- Caki-2 3-day: Average external-IC50
pIC50: −log10 of the molar value.
value-kind: pIC50

>  <compound>
Cc1ncsc1-c1ccc([C@H](C)NC(=O)[C@@H]2C[C@@H](O)CN2C(=O)[C@@H](NC(=O)CCCCCC(=O)N2CCN(CC[C@H](CSc3ccccc3)Nc3ccc(S(=O)(=O)NC(=O)c4ccc(N5CCCN(C)CC5)cc4)cc3S(=O)(=O)C(F)(F)F)CC2)C(C)(C)C)cc1 [I-41]

>  <value-kind>
pIC50

>  <observed-measurement>
< 4.52

$$$$
>  <compound>
Cc1ncsc1-c1ccc([C@H](C)NC(=O)[C@@H]2C[C@@H](O)CN2C(=O)[C@@H](NC(=O)CCCCCC(=O)N2CCN(CC[C@H](CSc3ccccc3)Nc3ccc(S(=O)(=O)NC(=O)c4ccc(N5CCC([C@@H](O)c6ccccc6-c6ccc(Cl)cc6)CC5)cc4)cc3S(=O)(=O)C(F)(F)F)CC2)C(C)(C)C)cc1 [I-28]

>  <value-kind>
pIC50

>  <observed-measurement>
4.52 to 5.00

$$$$
